test_system: CD44-HABD (UniProt P16070)
Sequence (P16070 20-178): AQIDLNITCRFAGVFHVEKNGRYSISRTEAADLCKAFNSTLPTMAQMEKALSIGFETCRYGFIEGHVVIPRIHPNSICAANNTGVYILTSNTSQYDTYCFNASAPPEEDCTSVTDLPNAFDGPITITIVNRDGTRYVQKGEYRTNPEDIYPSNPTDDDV
assay_name: filter binding
experimental_context: X = T9, T11 as ADDA-conjugated amino-dU; monothioate backbone; Filter binding: 1 nM biotinylated XA, 20 mM Tris pH 8.0, 150 mM NaCl, 40 min, room temperature; cell binding at room temperature, 30-60 min
pKd: −log10 of the molar value.

ordered_residues	pKd
TTAAGATCTGTTAGGGAACCAAGACGACAG [XA1-ADDA]	7.11

* * *

test_system: CD44-HABD (UniProt P16070)
assay_name: filter binding
experimental_context: X = T14 as amino-dU; monothioate backbone; Filter binding: 1 nM biotinylated XA, 20 mM Tris pH 8.0, 150 mM NaCl, 40 min, room temperature; cell binding at room temperature, 30-60 min
pKd: −log10 of the molar value.

ordered_residues	test_system	pKd
TTAAGATCTGCAATGTAACCATAGACACAG [XA9-NH2]	CD44-HABD (UniProt P16070)	6.96

* * *

test_system: CD44-HABD (UniProt P16070)
assay_name: filter binding
experimental_context: X = T14 as ADDA-conjugated amino-dU; monothioate backbone; Filter binding: 1 nM biotinylated XA, 20 mM Tris pH 8.0, 150 mM NaCl, 40 min, room temperature; cell binding at room temperature, 30-60 min
property_measured: Kd (nM)

ordered_residues	measured_number
TTAAGATCTGCAATGTAACCATAGACACAG [XA9-ADDA]	77.6
